STUDY TARGET: MAO-A (Homo sapiens)
Sequence (P21397 whole entry): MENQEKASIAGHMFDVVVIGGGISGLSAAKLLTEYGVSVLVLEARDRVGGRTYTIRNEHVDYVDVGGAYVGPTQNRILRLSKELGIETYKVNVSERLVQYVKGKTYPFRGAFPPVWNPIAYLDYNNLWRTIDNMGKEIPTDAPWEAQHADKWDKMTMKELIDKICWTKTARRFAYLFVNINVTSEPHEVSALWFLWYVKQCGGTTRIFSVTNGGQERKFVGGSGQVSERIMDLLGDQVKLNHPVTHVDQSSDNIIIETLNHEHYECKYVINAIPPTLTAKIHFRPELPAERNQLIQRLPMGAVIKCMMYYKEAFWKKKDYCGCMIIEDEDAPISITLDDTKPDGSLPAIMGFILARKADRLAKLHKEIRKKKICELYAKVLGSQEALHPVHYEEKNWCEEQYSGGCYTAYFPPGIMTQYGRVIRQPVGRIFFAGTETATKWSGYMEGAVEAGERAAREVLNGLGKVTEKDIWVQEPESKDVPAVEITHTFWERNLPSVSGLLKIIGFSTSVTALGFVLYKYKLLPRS

SMILES DATA	STUDY TARGET	IC50
C#CCNCc1cc2cc(OCc3ccccc3)ccc2[nH]1	MAO-A (Homo sapiens)	20 µM

* * *

STUDY TARGET: MAO-A (Rattus norvegicus)
Construct: human and rat tissue to obtain the isolated forms of monoamine oxidase A and B; from tissue
TEST SUMMARY: Kinetic parameters of suicide-type inhibition, MAO-A
Type: biochemical, Sprague-Dawley rat
pKi: −log10 of the molar value.
Quick rule: pKi of at least 8 means rule met, below that means rule not met.

SMILES DATA	ASSIGNED CATEGORY
C=C=CCN(C)Cc1cc2cc(OCc3ccccc3)ccc2n1C	rule not met
C#CCN(C)Cc1cc2cc(OCc3ccccc3)ccc2n1C	rule not met
CC#CCN(C)Cc1cc2cc(OCc3ccccc3)ccc2n1C	rule met
C#CCN(C)Cc1cc2cc(OCc3ccccc3)ccc2[nH]1	rule not met

* * *

STUDY TARGET: MAO-A (Rattus norvegicus, UniProt P21396)
Construct: human and rat tissue to obtain the isolated forms of monoamine oxidase A and B; from tissue
TEST SUMMARY: biochemical
Format: biochemical, Sprague-Dawley rat
pIC50: −log10 of the molar value.
If the reported pIC50 equals or exceeds 6, assign yes (1). If not, assign no (0).

MOLECULE	ASSIGNED CATEGORY
C#CCN(C)Cc1cc2cc(OCc3ccccc3)ccc2[nH]1 [FA-87]	yes (1)
C#CCNCc1cc2cc(OCc3ccccc3)ccc2[nH]1 [FA-73]	no (0)
C=C=CCN(C)Cc1cc2cc(OCc3ccccc3)ccc2n1C [FA-67]	no (0)
CC#CCN(C)Cc1cc2cc(OCc3ccccc3)ccc2[nH]1 [FA-88]	no (0)

* * *

STUDY TARGET: MAO-A (Rattus norvegicus, UniProt P21396)
Construct: human and rat tissue to obtain the isolated forms of monoamine oxidase A and B; from tissue
Sequence (P21396 1-526): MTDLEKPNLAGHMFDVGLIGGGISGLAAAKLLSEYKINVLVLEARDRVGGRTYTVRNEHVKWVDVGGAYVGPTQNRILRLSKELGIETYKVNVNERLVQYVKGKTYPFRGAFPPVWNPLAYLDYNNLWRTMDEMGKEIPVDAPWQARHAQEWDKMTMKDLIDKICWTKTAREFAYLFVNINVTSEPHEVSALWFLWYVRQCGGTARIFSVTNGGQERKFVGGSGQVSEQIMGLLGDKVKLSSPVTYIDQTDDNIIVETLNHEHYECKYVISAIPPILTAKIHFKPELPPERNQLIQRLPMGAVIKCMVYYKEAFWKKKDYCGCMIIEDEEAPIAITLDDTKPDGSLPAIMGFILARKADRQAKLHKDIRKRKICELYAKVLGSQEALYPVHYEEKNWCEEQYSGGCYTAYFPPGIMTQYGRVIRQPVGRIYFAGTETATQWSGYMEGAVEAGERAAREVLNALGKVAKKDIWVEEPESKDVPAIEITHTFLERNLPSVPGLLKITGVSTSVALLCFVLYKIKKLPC
TEST SUMMARY: biochemical
Format: biochemical, Sprague-Dawley rat
CONDITION SET: read-out: IC50 30 min.; MAO-A (lines A..), substrate 5-HT, 30 min incubation, rat mitochondria
Description: The mitochondrial portion of Sprague-Dawley rat was used to determine the MAO-A and MAO-B activity. Determinations were made of the comparative MAO-A and MAO-B activity inhibition curves of the various compounds under study at time 0 and 30 min. by measuring the remaining activity to 5-HT and PEA as substrates.
The entries below come with measured log10 of IC50 values attached.
READOUT KIND: log10 of IC50 (log10 of the value in nM)

SMILES DATA	log10 of IC50
CC#CCN(C)Cc1cc2cc(OCc3ccccc3)ccc2[nH]1	2.18
C=C=CCN(C)Cc1cc2cc(OCc3ccccc3)ccc2n1C	2.28
C#CCN(C)Cc1cc2cc(OCc3ccccc3)ccc2n1C	2.00
C#CCN(C)Cc1cc2cc(OCc3ccccc3)ccc2[nH]1	-0.10
CC#CCN(C)Cc1cc2cc(OCc3ccccc3)ccc2n1C	2.18
C#CCNCc1cc2cc(OCc3ccccc3)ccc2[nH]1	3.10
